Reference source: the Deep4Chem optical property database

experiment: solvent given as SMILES; conditions: in CS(C)=O
Parameter threshold = 500 nm. Response is 1 when absorption maximum meets or exceeds it, else 0.

Asked: Assess whether reported absorption maximum for CCOC(=O)CN(CC(=O)OCC)c1ccc(-c2cc(-c3cccnc3)nc(-c3cccnc3)c2)cc1 sits at 500 nm or higher.
Given back: 0

Asked: Assess whether reported absorption maximum for c1ccc(-c2nc3c(c4c2-c2ccccc2CC4)-c2ccccc2CC3)cc1 sits at 500 nm or higher.
Given back: 0

Asked: Assess whether reported absorption maximum for COCCOCCOCCOc1ccc(/C=C/C2=[N+]3C(=C(c4cc(OC)cc(OC)c4)c4c(C)c(I)c(/C=C/c5ccc(OCCOCCOCCOC)cc5)n4[B-]3(F)F)C(C)=C2I)cc1 sits at 500 nm or higher.
Given back: 1

Asked: Assess whether reported absorption maximum for C#CCn1c2ccccc2c2cc(/C=C/c3cc(C)c4n3[B-](F)(F)[N+]3=C(C)C=C(C)C3=C4c3ccc(I)cc3)ccc21 sits at 500 nm or higher.
Given back: 1

Asked: Assess whether reported absorption maximum for COc1cc2sc3nc(-c4ccccc4)sc3c2cc1OC sits at 500 nm or higher.
Given back: 0

Asked: Assess whether reported absorption maximum for CC(=O)O[B-]1(OC(C)=O)OC(/C=C/c2ccc(C)cc2)=CC(/C=C/c2ccc(C)cc2)=[O+]1 sits at 500 nm or higher.
Given back: 0

Asked: Assess whether reported absorption maximum for COc1ccc2c(=O)c3c([nH]c2c1)-c1ccccc1NC3(C)C sits at 500 nm or higher.
Given back: 0

* * *

assay: solvent given as SMILES; details: in CO
assayReadout: absorption maximum (nm)
Reply numerically in nm, unit not repeated.

Asked: Requested field: absorption maximum. Item: O=[N+]([O-])c1cccc(O)c1
Given back: 329

Asked: Requested field: absorption maximum. Item: CCCCc1ccc2ccc3c(CCCC)ccc4ccc1c2c43
Given back: 344

Asked: Requested field: absorption maximum. Item: CN1C(C(=O)Nc2ccccn2)=C(O)c2sccc2S1(=O)=O
Given back: 354

Asked: Requested field: absorption maximum. Item: CN(C)CCNCc1c2ccccc2cc2ccccc12
Given back: 364

Asked: Requested field: absorption maximum. Item: CC1(C)C(/C=C/C2=C(c3ccc(C(=O)O)cc3)C(=C/C=C3/N(CCCCS(=O)(=O)[O-])c4ccc(S(=O)(=O)[O-])cc4C3(C)C)/CCC2)=[N+](CCCCS(=O)(=O)[O-])c2ccc(S(=O)(=O)[O-])cc21
Given back: 770

* * *

What absorption maximum was measured for each of the following?
experiment: solvent given as SMILES; conditions: in ClCCl
Reply numerically in nm, unit not repeated.

Asked: Requested field: absorption maximum. Item: COC(=O)CCC1=CC(C#Cc2cccs2)=[N+]2C1=Cc1c(CCC(=O)OC)cc(C#Cc3cccs3)n1[B-]2(F)F
Given back: 649

Asked: Requested field: absorption maximum. Item: Cc1cc2ccsc2c2[nH]c3ccccc3c12
Given back: 310

Asked: Requested field: absorption maximum. Item: CCn1c2ccccc2c2cc(/C=C/c3cc(/C=C/c4ccc5c(c4)c4ccccc4n5CC)ncn3)ccc21
Given back: 405

Asked: Requested field: absorption maximum. Item: c1ccn(-c2ccc(-c3cc(-c4ccc(-n5cccc5)cc4)cc(-c4ccc(-n5cccc5)cc4)c3)cc2)c1
Given back: 388.72

Asked: Requested field: absorption maximum. Item: COc1nnc(Cl)nn1
Given back: 520

* * *

assay: solvent given as SMILES; settings: in CCCCCC
Parameter threshold = 400 nm. Response is Fulfilled when absorption maximum meets or exceeds it, else Not fulfilled.

Asked: Assess whether reported absorption maximum for CC(C)[Si](C#Cc1c2ccccc2c(C#C[Si](C(C)C)(C(C)C)C(C)C)c2nc3ccccc3nc12)(C(C)C)C(C)C sits at 400 nm or higher.
Given back: Fulfilled

Asked: Assess whether reported absorption maximum for C(=C\c1ccc2ccccc2c1)/c1ccc(N(c2ccccc2)c2ccccc2)cc1 sits at 400 nm or higher.
Given back: Not fulfilled

Asked: Assess whether reported absorption maximum for CC1=[N+]2C(=C(c3ccc(N4CCOCC4)cc3)c3ccc(C)n3[B-]2(F)F)C=C1 sits at 400 nm or higher.
Given back: Fulfilled

Asked: Assess whether reported absorption maximum for CCCCCCCCN1c2ccc(C#Cc3ccc(C(F)(F)F)cc3)cc2Sc2cc(C=O)ccc21 sits at 400 nm or higher.
Given back: Not fulfilled

* * *

test: solvent given as SMILES; conditions: in CCCCCC
Parameter threshold = 400 nm. Response is class 1 when absorption maximum meets or exceeds it, else class 0.

Asked: Assess whether reported absorption maximum for CC(C)[Si](C#Cc1c2nsnc2c(C#C[Si](C(C)C)(C(C)C)C(C)C)c2nc3c(ccc4ccccc43)nc12)(C(C)C)C(C)C sits at 400 nm or higher.
Given back: class 1

Asked: Assess whether reported absorption maximum for C[Si](C)(C)c1ccc2ccc3c([Si](C)(C)C)ccc4ccc1c2c43 sits at 400 nm or higher.
Given back: class 0

Asked: Assess whether reported absorption maximum for F[B-]1(F)OC(c2ccccc2)=Cc2cc(Cl)nc[n+]21 sits at 400 nm or higher.
Given back: class 0

Asked: Assess whether reported absorption maximum for CC(C)[Si](C#Cc1c2cc3ccccc3cc2c(C#C[Si](C(C)C)(C(C)C)C(C)C)c2nc3c(ccc4cc5ccccc5cc43)nc12)(C(C)C)C(C)C sits at 400 nm or higher.
Given back: class 1

Asked: Assess whether reported absorption maximum for CCC1=C(C)c2cc3ccccc3c(=O)n2C1=O sits at 400 nm or higher.
Given back: class 0

Asked: Assess whether reported absorption maximum for CN(C)c1ccc(/C=C/C=C2\CC/C(=C\c3ccc(N(C)C)cc3)C2=O)cc1 sits at 400 nm or higher.
Given back: class 1

Asked: Assess whether reported absorption maximum for c1ccc2nc3cccc(-c4ccc(-n5c6ccccc6c6ccccc65)cc4)c3cc2c1 sits at 400 nm or higher.
Given back: class 0

Asked: Assess whether reported absorption maximum for CC/C=C/C=C/C=C/C=C/CCCCCCCC(=O)O sits at 400 nm or higher.
Given back: class 0

* * *

test: solvent given as SMILES; settings: in C1CCOC1
What absorption maximum was measured for each of the following?
Reply numerically in nm, unit not repeated.

Asked: Requested field: absorption maximum. Item: CCOC(=O)COc1ccc(/C=C/C2=C3c4ccccc4C(c4[nH]c(C)cc4C)=[N+]3[B-](F)(F)n3c(C)cc(C)c32)cc1
Given back: 608

Asked: Requested field: absorption maximum. Item: Cc1cc(C)c(C2=[N+]3C(=Cc4c(C)cc(C)n4[B-]3(F)F)c3ccccc32)[nH]1
Given back: 609

Asked: Requested field: absorption maximum. Item: CC(C)(C)c1ccc2c(c1)Sc1cc(C(C)(C)C)ccc1N2c1ccc2c(ccc3nc4ccc5cc(N6c7ccc(C(C)(C)C)cc7Sc7cc(C(C)(C)C)ccc76)ccc5c4nc32)c1
Given back: 452

Asked: Requested field: absorption maximum. Item: CN(C)c1ccc(/C=C/C=C2\CC/C(=C\c3ccc(N(C)C)cc3)C2=O)cc1
Given back: 479

* * *

assay: solvent given as SMILES; conditions: in CCCCOCCCC
assayReadout: absorption maximum (nm)
Reply numerically in nm, unit not repeated.

Asked: Requested field: absorption maximum. Item: CC(C)(C)c1ccc(-c2nc3c4ccc(-c5cc6ccccc6c6ccccc56)cc4c4cc(-c5cc6ccccc6c6ccccc56)ccc4c3n2-c2ccc(C(C)(C)C)cc2)cc1
Given back: 326

Asked: Requested field: absorption maximum. Item: c1ccc(-n2c(-c3ccc(-c4ccc(-c5ccc(-c6nc7c8ccccc8c8ccccc8c7n6-c6ccccc6)cc5)cc4)cc3)nc3ccccc32)cc1
Given back: 340

Asked: Requested field: absorption maximum. Item: O=C1NC(=O)c2c1c1c3ccccc3[nH]c1c1[nH]c3ccccc3c21
Given back: 393

Asked: Requested field: absorption maximum. Item: Cn1cccc1-c1ccc(C#N)cc1
Given back: 321

Asked: Requested field: absorption maximum. Item: COc1nc(Nc2ccc3cc4ccccc4cc3c2)nc(OC)n1
Given back: 398

Asked: Requested field: absorption maximum. Item: CC(=O)Nc1ccc2c3cccc4cccc(c5cccc1c52)c43
Given back: 453

Asked: Requested field: absorption maximum. Item: O=C1c2ccccc2-c2ccc(Nc3nc(Cl)nc(Cl)n3)c3cccc1c23
Given back: 400.96

Asked: Requested field: absorption maximum. Item: c1ccc(-c2nc(-c3ccc(-c4ccc(-n5c6ccccc6c6ccccc65)cc4)cn3)oc2-c2ccccc2)cc1
Given back: 336

* * *

experiment: solvent given as SMILES; conditions: in CCCCO
What absorption maximum was measured for each of the following?
Reply numerically in nm, unit not repeated.

Asked: Requested field: absorption maximum. Item: CN1C(C(=O)Nc2ccccn2)=C(O)c2sccc2S1(=O)=O
Given back: 350

Asked: Requested field: absorption maximum. Item: COc1ccc(C(=O)/C=C2\C(=O)Nc3ccccc32)cc1
Given back: 345

Asked: Requested field: absorption maximum. Item: Cc1c2ccncc2c(C)c2c1[nH]c1ccccc12
Given back: 295

Asked: Requested field: absorption maximum. Item: COC(=O)C(Cc1ccc2oc(-c3ccc(N(C)C)cc3)nc2c1)NC(=O)OC(C)(C)C (stereo unspecified)
Given back: 345.9

Asked: Requested field: absorption maximum. Item: O=c1[nH]c2ccccc2[nH]1
Given back: 280

Asked: Requested field: absorption maximum. Item: Cc1cc(O)c(C(C)C)cc1/N=C/c1ccc(O)cc1
Given back: 340

Asked: Requested field: absorption maximum. Item: O=C1c2ccc3c4ccc5c6c(ccc(c7ccc(c2c37)C(=O)N1c1ccncc1)c64)C(=O)N(c1ccncc1)C5=O
Given back: 525

Asked: Requested field: absorption maximum. Item: CC(C)(C)c1ccc2oc(-c3ccc(-c4nc5cc(C(C)(C)C)ccc5o4)s3)nc2c1
Given back: 375

Asked: Requested field: absorption maximum. Item: CN(C)c1ccc(/C=C2\CC/C(=C\c3ccc(C#N)cc3)C2=O)cc1
Given back: 473

Asked: Requested field: absorption maximum. Item: O=C1Nc2ccccc2/C1=C/C(=O)c1ccc([N+](=O)[O-])cc1
Given back: 346

Asked: Requested field: absorption maximum. Item: COc1ccc2cc(-c3ccc(C(F)(F)F)cc3)oc(=O)c2c1
Given back: 326

Asked: Requested field: absorption maximum. Item: CCCCCCCCCCCCCCCCN(CCCCCCCCCCCCCCCC)c1ccc(/C=C/c2cc[n+](Cc3cc(C[n+]4ccc(/C=C/c5ccc(N(CCCCCCCCCCCCCCCC)CCCCCCCCCCCCCCCC)cc5)cc4)cc(C[n+]4ccc(/C=C/c5ccc(N(CCCCCCCCCCCCCCCC)CCCCCCCCCCCCCCCC)cc5)cc4)c3)cc2)cc1
Given back: 507

Asked: Requested field: absorption maximum. Item: Cc1ccccc1/C(C#N)=C/c1ccc(N(C)C)cc1
Given back: 376

Asked: Requested field: absorption maximum. Item: COc1ccc2c(=O)c3c([nH]c2c1)-c1ccccc1NC3(C)C
Given back: 424

Asked: Requested field: absorption maximum. Item: O=S(=O)([O-])c1ccc(O)c2ccccc12
Given back: 321

Asked: Requested field: absorption maximum. Item: CC/C=C/C=C/C=C/C=C/CCCCCCCC(=O)O
Given back: 315.2

Asked: Requested field: absorption maximum. Item: COCCOc1cc(C=O)c(OCCOC)cc1C=O
Given back: 363

Asked: Requested field: absorption maximum. Item: CC(=O)Nc1ccc(O)cc1
Given back: 290

Asked: Requested field: absorption maximum. Item: Cc1cc(O)c(C(C)C)cc1/N=C/c1ccc(C(F)(F)F)cc1
Given back: 367

Asked: Requested field: absorption maximum. Item: CCCCCCC(CCCCCC)N1C(=O)c2cccc3c(-c4cc(OC)c(OC)c(OC)c4)ccc(c23)C1=O
Given back: 361.4

Asked: Requested field: absorption maximum. Item: CCN(CC)c1ccc2c(C)cc(=O)oc2c1
Given back: 374
